Tested on: biofilm-producing Staphylococcus epidermidis strains
Assay protocol: Inhibition of biofilm formation (MBIC, resazurin)
Assay type: cell-based
Run parameters: clinical strain 44 (Table S4)
Reported MBIC values for the following molecules.

Molecule	MBIC
O=S(=O)(NC1CCN(CCC(Oc2ccc(C(F)(F)F)cc2)c2ccccc2)CC1)c1cccc(Cl)c1 (stereo not shown)	31.25 µg/mL
CC(=O)NC[C@H]1CN(c2ccc(N3CCOCC3)c(F)c2)C(=O)O1 [linezolid, reference compound]	25 µg/mL
O=S(=O)(NC1CCN(CCC(Oc2ccc(C(F)(F)F)cc2)c2cccs2)CC1)c1cccc(Cl)c1 (stereo not shown)	62.5 µg/mL
O=C(Nc1cccc(Cl)c1)NC1CCN(CCC(Oc2ccc(C(F)(F)F)cc2)c2cccs2)CC1 (stereo not shown)	15.6 µg/mL

----------
System: clinical MDR Staphylococcus epidermidis isolates
Assay protocol: MIC, broth microdilution, 81 clinical MDR strains
Format: cell-based
Run parameters: Staphylococcus epidermidis, clinical strain 21 (Table S2); read-out: MIC
Reported MIC values for the following molecules.
Readout name: MIC (µg/mL)

Molecule	Result number
O=S(=O)(NC1CCN(CCC(Oc2ccc(C(F)(F)F)cc2)c2cccs2)CC1)c1cccc(C(F)(F)F)c1 (stereo not drawn)	3.12
CC(=O)NC[C@H]1CN(c2ccc(N3CCOCC3)c(F)c2)C(=O)O1 [linezolid, reference compound]	1.6
O=S(=O)(NC1CCN(CCC(Oc2ccc(C(F)(F)F)cc2)c2cccs2)CC1)c1cccc(Br)c1 (stereo not drawn)	3.12
O=S(=O)(NC1CCN(CCC(Oc2ccc(C(F)(F)F)cc2)c2ccccc2)CC1)c1cccc(Cl)c1 (stereo not drawn)	6.25
O=S(=O)(NC1CCN(CCC(Oc2ccc(C(F)(F)F)cc2)c2cccs2)CC1)c1cccc(Cl)c1 (stereo not drawn)	3.12
O=C(Nc1cccc(Cl)c1)NC1CCN(CCC(Oc2ccc(C(F)(F)F)cc2)c2cccs2)CC1 (stereo not drawn)	1.6

----------
Tested on: biofilm-producing Staphylococcus epidermidis strains
Assay protocol: Inhibition of biofilm formation (MBIC, resazurin)
Format: cell-based
Run parameters: clinical strain 42 (Table S4)
Experimental: After 24 hours incubation each well of concentration of 4 mg/mL was added. […]
Readout name: MBIC (µg/mL)

Compound	Readout name	Unit annotation	Result number
O=S(=O)(NC1CCN(CCC(Oc2ccc(C(F)(F)F)cc2)c2ccccc2)CC1)c1cccc(Cl)c1 (stereo not shown) [Compound 12]	MBIC	µg/mL	125
O=C(Nc1cccc(Cl)c1)NC1CCN(CCC(Oc2ccc(C(F)(F)F)cc2)c2cccs2)CC1 (stereo not shown) [Compound 25]	MBIC	µg/mL	31.25
CC(=O)NC[C@H]1CN(c2ccc(N3CCOCC3)c(F)c2)C(=O)O1 [linezolid, reference compound]	MBIC	µg/mL	50
O=S(=O)(NC1CCN(CCC(Oc2ccc(C(F)(F)F)cc2)c2cccs2)CC1)c1cccc(Cl)c1 (stereo not shown) [Compound 14]	MBIC	µg/mL	125

----------
Test system: biofilm-producing Staphylococcus epidermidis strains
Assay protocol: Inhibition of biofilm formation (MBIC, resazurin)
Assay type: cell-based
Run parameters: clinical strain 4 (Table S4)

Compound	MBIC
O=C(Nc1cccc(Cl)c1)NC1CCN(CCC(Oc2ccc(C(F)(F)F)cc2)c2cccs2)CC1 (stereo not shown)	31.25 µg/mL
O=S(=O)(NC1CCN(CCC(Oc2ccc(C(F)(F)F)cc2)c2cccs2)CC1)c1cccc(Cl)c1 (stereo not shown)	125 µg/mL
CC(=O)NC[C@H]1CN(c2ccc(N3CCOCC3)c(F)c2)C(=O)O1 [linezolid, reference compound]	50 µg/mL
O=S(=O)(NC1CCN(CCC(Oc2ccc(C(F)(F)F)cc2)c2ccccc2)CC1)c1cccc(Cl)c1 (stereo not shown)	125 µg/mL
